molecular target: Beta-2 adrenergic receptor (Homo sapiens, UniProt P07550); further: assay procedure not described here
Sequence (P07550 whole entry): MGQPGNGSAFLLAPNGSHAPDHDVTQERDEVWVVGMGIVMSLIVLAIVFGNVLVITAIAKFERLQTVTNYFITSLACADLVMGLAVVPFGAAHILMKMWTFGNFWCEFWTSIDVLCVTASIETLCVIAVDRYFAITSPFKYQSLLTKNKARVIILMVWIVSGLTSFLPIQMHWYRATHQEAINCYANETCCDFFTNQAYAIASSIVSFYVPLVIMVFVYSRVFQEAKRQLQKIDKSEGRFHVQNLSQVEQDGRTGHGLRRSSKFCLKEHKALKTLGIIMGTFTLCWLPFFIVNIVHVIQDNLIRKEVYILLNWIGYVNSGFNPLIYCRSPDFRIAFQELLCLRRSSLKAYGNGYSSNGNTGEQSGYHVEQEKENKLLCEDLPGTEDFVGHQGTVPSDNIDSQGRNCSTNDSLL
measured_endpoint: AC50

[[record]]
compound = "CC(C)C(=O)c1c(C(C)C)nn2ccccc12"
tgt = "Beta-2 adrenergic receptor (Homo sapiens, UniProt P07550)"
measured_endpoint = "AC50"
result = "> 30 µM"

[[record]]
compound = "CN(C)/N=N/c1[nH]cnc1C(N)=O"
tgt = "Beta-2 adrenergic receptor (Homo sapiens, UniProt P07550)"
measured_endpoint = "AC50"
result = "> 10 µM"

[[record]]
compound = "Cc1nnc2n1-c1ccc(Cl)cc1C(c1ccccc1Cl)=NC2"
tgt = "Beta-2 adrenergic receptor (Homo sapiens, UniProt P07550)"
measured_endpoint = "AC50"
result = "> 10 µM"

[[record]]
compound = "COc1ccc(CCN(C)CCCC(C#N)(c2cc(OC)c(OC)c(OC)c2)C(C)C)cc1OC (stereo not given)"
tgt = "Beta-2 adrenergic receptor (Homo sapiens, UniProt P07550)"
measured_endpoint = "AC50"
result = "> 30 µM"


Record AC50 per entry; entries follow.
1. CC(C)(C)C(=O)Oc1ccc(S(=O)(=O)Nc2ccccc2C(=O)NCC(=O)O)cc1
2. COc1ccccc1OCC(O)CN1CCN(CC(=O)Nc2c(C)cccc2C)CC1 (stereo not given)
3. CN(C)CCC(c1ccc(Cl)cc1)c1ccccn1 (stereo not given)
4. C=CCC1(CC(C)C)C(=O)NC(=O)NC1=O
5. Clc1ccc(C(c2ccccc2Cl)C(Cl)Cl)cc1 (stereo not given)
6. CC1(C)NC(=O)N(c2ccc([N+](=O)[O-])c(C(F)(F)F)c2)C1=O [NILUTAMIDE]

## Output
> 30 µM
5.7 µM
> 10 µM
> 10 µM
> 10 µM
> 30 µM

###

# Adenosine receptor A2a (Homo sapiens): AC50 values follow; further: assay procedure not described here
# Sequence (P29274 whole entry): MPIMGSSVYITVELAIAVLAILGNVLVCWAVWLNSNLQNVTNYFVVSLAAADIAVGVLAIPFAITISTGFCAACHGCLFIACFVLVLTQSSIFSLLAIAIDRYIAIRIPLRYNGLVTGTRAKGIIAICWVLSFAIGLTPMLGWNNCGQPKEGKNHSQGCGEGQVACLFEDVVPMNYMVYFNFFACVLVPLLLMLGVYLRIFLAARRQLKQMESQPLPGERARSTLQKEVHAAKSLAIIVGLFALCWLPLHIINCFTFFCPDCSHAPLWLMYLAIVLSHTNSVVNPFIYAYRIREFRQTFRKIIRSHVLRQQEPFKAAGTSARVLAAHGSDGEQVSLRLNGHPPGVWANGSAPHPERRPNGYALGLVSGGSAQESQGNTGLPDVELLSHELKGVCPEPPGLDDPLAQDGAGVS

Solved entries (count: 3):
[[record]]
compound = "CC(C)C[C@H]1C(=O)N2CCC[C@H]2[C@]2(O)O[C@](NC(=O)[C@@H]3C=C4c5cccc6[nH]c(Br)c(c56)C[C@H]4N(C)C3)(C(C)C)C(=O)N12"
result = "> 30 µM"

[[record]]
compound = "Nc1nc(N)nc(-c2cc(Cl)ccc2Cl)n1"
result = "> 30 µM"

[[record]]
compound = "CC[C@H]1[C@@H](O)[C@@H]2[C@H](CC[C@]3(C)[C@@H]([C@H](C)CCC(=O)O)CC[C@@H]23)[C@@]2(C)CC[C@@H](O)C[C@@H]12"
result = "> 30 µM"


Below are some compounds; for each one, tell me its AC50.
1. CN1C(=O)OC(C)(C)C1=O
2. CC(C)(C)C(=O)Oc1ccc(S(=O)(=O)Nc2ccccc2C(=O)NCC(=O)O)cc1

## Output
1: > 10 µM; 2: > 30 µM

Please supply AC50 for each of the following items, keeping them in order.
1. CN1CCC(=C2c3ccccc3CCc3sccc32)CC1
2. CC(=O)O[C@H]1CC[C@@]2(C)C(=CC[C@@H]3[C@@H]2CC[C@]2(C)C(c4cccnc4)=CC[C@@H]32)C1 [ABIRATERONE ACETATE]

## Output
> 30 µM
> 30 µM

###

Give AC50 for every item shown.
target: Adenosine receptor A3 (Homo sapiens); further: assay procedure not described here
Sequence (P0DMS8 whole entry): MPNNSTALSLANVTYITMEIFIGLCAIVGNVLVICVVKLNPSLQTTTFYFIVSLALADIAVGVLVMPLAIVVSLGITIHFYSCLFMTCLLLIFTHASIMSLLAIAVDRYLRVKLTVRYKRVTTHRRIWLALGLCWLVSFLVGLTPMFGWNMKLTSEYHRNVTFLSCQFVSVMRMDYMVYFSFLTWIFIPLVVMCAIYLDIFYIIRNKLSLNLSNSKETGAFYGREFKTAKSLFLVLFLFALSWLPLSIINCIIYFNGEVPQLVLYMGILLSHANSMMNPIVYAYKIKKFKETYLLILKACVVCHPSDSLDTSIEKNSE

Examples from the recorded data:
[[record]]
molecule = "CC(=O)O[C@H]1CC[C@@]2(C)C(=CC[C@@H]3[C@@H]2CC[C@]2(C)C(c4cccnc4)=CC[C@@H]32)C1 [ABIRATERONE ACETATE]"
measured_endpoint = "AC50"
result = "> 30 µM"

[[record]]
molecule = "COc1ccccc1OCCNCC(O)c1ccc(C)c(S(N)(=O)=O)c1 (stereo not drawn)"
measured_endpoint = "AC50"
result = "> 30 µM"

[[record]]
molecule = "N[C@@H]1[C@H]2CN(c3nc4c(cc3F)c(=O)c(C(=O)O)cn4-c3ccc(F)cc3F)C[C@@H]12"
measured_endpoint = "AC50"
result = "> 30 µM"


For the 5 molecules below, give their AC50 values.
1. CC(C)C[C@H]1C(=O)N2CCC[C@H]2[C@]2(O)O[C@](NC(=O)[C@@H]3C=C4c5cccc6[nH]c(Br)c(c56)C[C@H]4N(C)C3)(C(C)C)C(=O)N12
2. COc1ccc(-c2ccc3cc(C(=O)O)ccc3c2)cc1C12CC3CC(CC(C3)C1)C2
3. C1CCC(C(CC2CCCCN2)C2CCCCC2)CC1 (stereo not drawn)
4. C[C@]1(O)CC[C@H]2[C@@H]3CCC4=CC(=O)CC[C@]4(C)[C@@]3(F)[C@@H](O)C[C@@]21C
5. CCCCc1ncc(/C=C(\Cc2cccs2)C(=O)O)n1Cc1ccc(C(=O)O)cc1

## Output
1. 6.81 µM
2. > 30 µM
3. 14.1 µM
4. > 10 µM
5. > 10 µM
